Please provide measured kd for the entries that follow.
Target: T1, human EphA4 (Homo sapiens, UniProt P54764)
T1 construct: made in house; not restated for the human SEAP-His protein
T1 sequence (P54764 20-547): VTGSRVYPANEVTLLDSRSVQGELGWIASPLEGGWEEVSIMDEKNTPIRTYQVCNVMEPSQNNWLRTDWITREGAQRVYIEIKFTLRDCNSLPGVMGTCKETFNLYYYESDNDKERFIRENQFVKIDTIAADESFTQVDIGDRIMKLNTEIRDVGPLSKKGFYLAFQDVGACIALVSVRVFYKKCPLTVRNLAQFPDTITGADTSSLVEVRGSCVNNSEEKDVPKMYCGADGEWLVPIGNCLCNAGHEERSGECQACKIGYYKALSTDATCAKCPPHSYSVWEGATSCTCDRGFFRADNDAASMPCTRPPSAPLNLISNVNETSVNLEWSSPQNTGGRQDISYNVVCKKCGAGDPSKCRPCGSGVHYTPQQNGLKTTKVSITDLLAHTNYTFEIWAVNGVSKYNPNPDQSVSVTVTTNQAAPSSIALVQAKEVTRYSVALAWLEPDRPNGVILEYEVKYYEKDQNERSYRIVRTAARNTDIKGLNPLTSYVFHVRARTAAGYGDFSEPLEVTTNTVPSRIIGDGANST
Test: Affinity of humanized antibodies by SPR (Biacore T200)
Assay type: binding
Details: human EphA4 extracellular region-SEAP-His; 1:1 binding model
Give bare numbers, in s⁻¹.

molecule: 157 (antibody, V domains shown, synthetic humanized antibody heavy chain variable region sequence; synthetic humanized antibody light chain variable region sequence) VH: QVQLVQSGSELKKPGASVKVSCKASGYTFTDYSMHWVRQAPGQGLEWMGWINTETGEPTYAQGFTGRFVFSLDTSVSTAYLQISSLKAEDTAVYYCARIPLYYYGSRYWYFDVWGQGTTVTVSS VL: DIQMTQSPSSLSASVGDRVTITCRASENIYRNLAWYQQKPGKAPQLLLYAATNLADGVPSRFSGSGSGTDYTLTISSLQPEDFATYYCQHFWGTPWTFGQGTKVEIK
kd / s⁻¹: 0.00068

# batch: return kd for each of the 3 molecules below
1. 71 (antibody, V domains shown, synthetic humanized antibody heavy chain variable region sequence; synthetic humanized antibody light chain variable region sequence) VH: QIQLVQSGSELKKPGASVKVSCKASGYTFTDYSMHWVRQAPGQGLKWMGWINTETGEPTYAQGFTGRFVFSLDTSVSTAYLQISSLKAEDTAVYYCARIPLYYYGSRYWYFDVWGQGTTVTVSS VL: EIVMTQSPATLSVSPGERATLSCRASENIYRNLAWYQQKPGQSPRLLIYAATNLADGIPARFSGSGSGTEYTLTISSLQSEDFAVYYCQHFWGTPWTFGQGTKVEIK
2. antibody A: mouse anti-EphA4 monoclonal antibody, IgG1/κ; heavy chain variable region SEQ ID NO: 11, light chain variable region SEQ ID NO: 13 (antibody, listed as Mus musculus, V domains shown) VH: QIQLVQSGPELKKPGETVKISCKASGYTFTDYSMHWVKQAPGKGLKWMGWINTETGEPTYADDFKGRFAFSLETSASTAYLQINNLKNEDTATYFCARIPLYYYGSRYWYFDVWGAGTTVTVSS VL: DIQMTQSPASLSVSVGETVTITCRASENIYRNLAWYQQKQGKSPQLLVYAATNLADGVPSRFSGSGSGTQYSLKINSLQSEDFGSYYCQHFWGTPWTFGGGTKLEIK
3. 67 (antibody, V domains shown, synthetic humanized antibody heavy chain variable region sequence; synthetic humanized antibody light chain variable region sequence) VH: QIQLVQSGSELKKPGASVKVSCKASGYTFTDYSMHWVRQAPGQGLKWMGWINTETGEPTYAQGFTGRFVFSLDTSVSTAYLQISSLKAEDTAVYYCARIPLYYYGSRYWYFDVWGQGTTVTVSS VL: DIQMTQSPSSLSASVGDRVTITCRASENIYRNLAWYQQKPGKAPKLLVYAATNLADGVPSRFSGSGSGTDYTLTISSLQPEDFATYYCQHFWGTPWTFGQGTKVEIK

### Response
1. 0.00023
2. 0.00025
3. 0.00035

# credit: patent US10428140B2
